# credit: patent US20080004302A1

# pIC50 per entry
Target: FGFR1 IIIc (Homo sapiens)
Construct: host or cells: Cos-1
Sequence (P11362 22-822): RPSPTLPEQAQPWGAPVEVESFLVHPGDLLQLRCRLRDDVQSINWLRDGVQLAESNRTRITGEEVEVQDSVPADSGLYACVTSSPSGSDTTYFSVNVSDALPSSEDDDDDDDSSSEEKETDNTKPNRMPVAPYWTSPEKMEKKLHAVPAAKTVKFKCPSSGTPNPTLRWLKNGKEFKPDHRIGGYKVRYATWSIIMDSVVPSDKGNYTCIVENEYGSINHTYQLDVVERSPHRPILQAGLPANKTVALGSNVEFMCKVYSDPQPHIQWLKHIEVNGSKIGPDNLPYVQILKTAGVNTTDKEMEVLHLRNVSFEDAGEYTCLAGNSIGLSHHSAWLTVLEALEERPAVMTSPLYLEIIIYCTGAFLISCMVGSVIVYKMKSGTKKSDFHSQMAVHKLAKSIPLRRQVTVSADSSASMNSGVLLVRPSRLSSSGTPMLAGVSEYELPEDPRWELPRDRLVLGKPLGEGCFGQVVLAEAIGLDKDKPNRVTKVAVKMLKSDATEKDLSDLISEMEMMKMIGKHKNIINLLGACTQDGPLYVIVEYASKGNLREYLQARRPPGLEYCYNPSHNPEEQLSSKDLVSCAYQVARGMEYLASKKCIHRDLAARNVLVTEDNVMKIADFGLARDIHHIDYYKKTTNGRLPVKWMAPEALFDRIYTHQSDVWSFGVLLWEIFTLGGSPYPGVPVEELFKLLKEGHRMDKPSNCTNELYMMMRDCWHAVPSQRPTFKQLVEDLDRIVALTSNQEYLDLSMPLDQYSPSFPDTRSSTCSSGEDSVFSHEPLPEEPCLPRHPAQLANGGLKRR
Test: Cell based inhibition of transiently expressed FGFR1 IIIc phosphorylation (Cos-1 cells)
Conditions: Cos-1 cells, phospho-FGFR1; upper bound of bin; read-out: IC50
Excerpt: This assay is designed to detect inhibitors of transiently expressed FGFR1 phosphorylation by antibody staining of fixed cells detected using ArrayScan technology. To undertake the assay, Cos-1 cells were harvested at 90-95% confluence for cell transfection. […] The harvested Cos-1 cells are counted using a coulter counter and diluted further with 1% FCS/DMEM to 2.5×10^5 cells/ml. […] The plates were read on an Arrayscan (Cellomics).
pIC50: −log10 of the molar value.

Entry `COc1ccc(OC)c(CCc2cc(Nc3ccnc(NCc4cc(C)no4)n3)n[nH]2)c1` ; pIC50 = > 5.00

// `Cc1cc(CNc2nccc(Nc3cc(CCc4cc(C)nn4C)[nH]n3)n2)on1` : pIC50 value = > 4.52

The compound listed as `COc1ncc(CCc2cc(Nc3ccnc(NCc4cc(C)no4)n3)n[nH]2)c(OC)n1` shows pIC50 equal to > 4.52

* * *

biological target: FGFR1 IIIc (Homo sapiens); construct: host or cells: Cos-1; experiment: Cell based inhibition of transiently expressed FGFR1 IIIc phosphorylation via use of ECHO technology (Cos-1 cells); details: Cos-1 cells, phospho-FGFR1, ECHO dosing; upper bound of bin; read-out: IC50
Structures can show the parent of a compound that is named as a salt.
Value kind: IC50

{"Compound": "Cc1cc(CNc2nccc(Nc3cc(CCc4cc(F)cc(Cl)c4)[nH]n3)n2)on1 [Example 57]", "IC50": "< 1000 nM"}

Looking up COc1ccc(CCc2cc(Nc3ccnc(NCc4cc(-c5ncccn5)no4)n3)n[nH]2)cc1 [Example 32] , I see its IC50 listed as < 1000 nM

The value of IC50 measured for the compound COC(=O)c1cccc(COc2cc(Nc3ccnc(NCc4cc(C)no4)n3)n[nH]2)c1 [Example 97, hydrochloride] turned out to be < 200 nM

Field IC50 (entry Cc1cc(CNc2nccc(Nc3cc(OCc4cccc(Cl)c4)[nH]n3)n2)on1 [Example 93, hydrochloride] ) reads < 1000 nM

Consider c1coc(CCc2cc(Nc3ccnc(NCc4cc(C5CC5)no4)n3)n[nH]2)c1 [Example 111] . Its measured IC50 is < 200 nM

# IC50 (compound: NC(=O)c1cc(CNc2nccc(Nc3cc(CCc4cccc(OCC5CC5)c4)[nH]n3)n2)on1 [Example 123] ) is < 10000 nM

Looking up Cc1cc(CNc2nccc(Nc3cc(CCc4cccc(=O)[nH]4)[nH]n3)n2)on1 [Example 134, dihydrochloride] , I found its IC50 recorded as < 30000 nM

get_value(item= CC(C)Oc1cccc(CCc2cc(Nc3ccnc(NCc4cc(C(N)=O)no4)n3)n[nH]2)c1 [Example 140] , readout=IC50) returns < 10000 nM

Short answer for c1cc(Nc2cc(C3CC3)[nH]n2)nc(NCc2cc(C3CC3)no2)n1 [Example 10] : IC50 was < 200 nM

Sure, the documented IC50 for COc1cc(CCc2cc(Nc3ccnc(NCc4cc(C)no4)n3)n[nH]2)c(F)cn1 [Example 62, hydrochloride] is < 1000 nM
